Each entry below carries its recorded AC50.
system: Clone20 osteoblast Shn3 3'UTR firefly luciferase, 24 h; test: Shn3 3'UTR reporter inhibitors, dose response, cell-based, Clone20 osteoblasts, luminescence, dry powder, set 2 (AID 743417)
Inconclusive results are not listed.

{"compound": "COC(=O)/C(=C1/Oc2cc(C)oc(=O)c2S1)C(F)(F)F", "AC50": "4.64 µM"}
{"compound": "N#Cc1cc(-c2ccccc2)[nH]c1-c1nccc2ccccc12", "AC50": "3.42 µM"}
{"compound": "COC(=O)Oc1ccc(/C=C/C(=O)OC(C)C)cc1OC(=O)OC", "AC50": "3.29 µM"}

Qu. Assign AC50 to the following record: O=C(/C=C/c1ccc(O)c(O)c1)OCCc1ccccc1
Ans. 0.877 µM

Qu. Assign AC50 to the following record: Oc1c(CN2CCCCC2)cc(COCc2ccccc2)c2cccnc12
Ans. 0.537 µM

Qu. Assign AC50 to the following record: Fc1ccc(/C=C2\CCCC3=C2Nc2ncnn2C3c2ccc(F)cc2)cc1 (stereo not drawn)
Ans. 8.47 µM
